- assay system: Mast/stem cell growth factor receptor Kit (Homo sapiens);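 note: values are mean inhibition of KIT, from the GSK PKIS dataset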
- condition summary: at 0.1 µM
Could you label it Satisfied if measured inhibition is 20% or higher, and Not satisfied otherwise?

Solved cases below.
smiles_code=NS(=O)(=O)c1ccc(N/N=C2\C(=O)Nc3cccc(CCc4ccncc4)c32)cc1 assigned_class=Satisfied
smiles_code=CN1CCC(n2cnc(-c3ccc(F)cc3)c2-c2ccnc(NCCO)n2)CC1 assigned_class="Not satisfied"
smiles_code=COc1cc(Nc2ncc(-c3ccccc3)o2)cc(OC)c1 assigned_class=Satisfied
smiles_code=O=C1Nc2ccccc2/C1=C1\CCc2cc(O)ccc21 assigned_class=Satisfied
smiles_code=Cc1cc(O)cc(C)c1/C=C/c1cncc(C(N)=O)c1 assigned_class="Not satisfied"
smiles_code=Cc1c2ccc(N(C)c3ccnc(Nc4cccc(S(N)(=O)=O)c4)n3)cc2nn1C assigned_class=Satisfied
smiles_code=COc1cccc(Nc2nccc(-c3cnn4ncccc34)n2)c1 assigned_class=Satisfied
smiles_code=COc1c(C(N)=O)cc(-c2ccc(Cl)cc2)cc1-c1ccc(S(N)(=O)=O)cc1 assigned_class="Not satisfied"

Challenge: Record COc1cccc(-n2ncc3c(N/N=C/c4ccc(C(=O)NCCN(C)C)cc4)ncnc32)c1 ; criterion: inhibition no lower than 20%. Met?
Response given: Not satisfied

Challenge: Record O=C(O[C@H]1CN[C@H](C#Cc2cc3ncnc(Nc4ccc5c(cnn5Cc5ccccc5)c4)c3s2)C1)N1CCOCC1 ; criterion: inhibition no lower than 20%. Met?
Response given: Not satisfied

Challenge: Record CNC(=O)c1ncccc1Nc1nc(Nc2cc3c(cc2OC)CCCN3C(=O)CN(C)C)nc2[nH]ccc12 ; criterion: inhibition no lower than 20%. Met?
Response given: Not satisfied

Challenge: Record COC(=O)Nc1nc2ccc(Oc3ccc(NC(=O)Nc4cc(C(F)(F)F)ccc4F)cc3)cc2s1 ; criterion: inhibition no lower than 20%. Met?
Response given: Not satisfied
